tested on: H1 or H9 human embryonic stem cells; assay: Activin A bioassay: differentiation of human embryonic stem cells to definitive endoderm, cell number and SOX17 intensity by high content analysis (96-well, four days); type: cell-based; details: supernatant concentration 10x, assay dilution 1:20; control = R&D Sys Activin A 100 ng/ml on same plate
Checkbox rule: Sox 17 Intensity % of control lower than 8% = T; Sox 17 Intensity % of control not lower than 8% = F.

Just wondering, is Sox 17 Intensity % of control of ACTN72: activin A variant peptide, SEQ ID 73 (protein) GLECDGKVNICCKKQLFGQAKDIGWNDWIIAPSGYHGGSCTGECPSHIAGTSGSSLSFHSTVINHYRMRGHSPNANLKSCCSPTKLRPMSMLYYDDGQNIIKKDIQNMVVEECGCT below 8%? F

Now the molecule ACTN29: activin A variant peptide, SEQ ID 30 (protein) GLECDGKVNLCCKKQLFVSFKDIGWNDWIIAPSGYHANHCSGKCPSHIAGTSGSSLSFHSTVINHYRMRGHSPFSDMGSCCIPTKLRPMSMLYYDDGQNIIKKDIQNMIVEECGCS F

Now the molecule ACTN76: activin A variant peptide, SEQ ID 77 (protein) GLECDGKVNICCKKQLFGQTKDIGWNDWIIAPSGYHGGGCSGECPSHIAGTSGSSLSFHSTVINHYRMRGHSPNANLKSCCSPTKLRPMSMLYYDDGQNIIKKDIQGMKVEECGCT T

Now the molecule ACTN17: activin A variant peptide, SEQ ID 18 (protein) GLECDGKVNYCCKKQDFVSFKDIGWNDWIIAPSGYHANKCGGKCPSHIAGTSGSSLSFHSTVINHYRMRGHSPFSDMGACCVPTKLRPMSMLYYDDGQNIIKKDIQNMIVEECGCS T

Now the molecule ACTN37: activin A variant peptide, SEQ ID 38 (protein) GLECDGKVNLCCKKQDFVSFKDIGWNDWIIAPSGYHANRCSGKCPSHIAGTSGSSLSFHSTVINHYRMRGHSPFSDMGACCIPTKLRPMSMLYYDDGQNIIKKDIQNMIVEECGCS T

Now the molecule ACTN24: activin A variant peptide, SEQ ID 25 (protein) GLECDGKVNLCCKKQDFVSFKDIGWNDWIIAPSGYHANRCSGRCPSHIAGTSGSSLSFHSTVINHYRMRGHSPFSDMGSCCVPTKLRPMSMLYYDDGQNIIKKDIQNMIVEECGCS F

Now the molecule ACTN69: activin A variant peptide, SEQ ID 70 (protein) GLECDGKVNICCKKQSFGKTKDIGWNDWIIAPSGYHGGGCTGECPSHIAGTSGSSLSFHSTVINHYRMRGHSPFANLKSCCSPTKLRPMSMLYYDDGQNIIKKDIQQMVVEECGCT F

Now the molecule ACTN88: activin A variant peptide, SEQ ID 89 (protein) GLECDGKVNICCKKQSFGQTKDIGWNDWIIAPSGYHGGGCSGECPSHIAGTSGSSLSFHSTVINHYRMRGHSPWANLKSCCSPTKLRPMSMLYYDDGQNIIKKDIQNMVVEECGCT T

Now the molecule ACTN23: activin A variant peptide, SEQ ID 24 (protein) GLECDGKVNYCCKKQDFVSFKDIGWNDWIIAPSGYHANKCDGKCPSHIAGTSGSSLSFHSTVINHYRMRGHSPFSDMGSCCIPTKLRPMSMLYYDDGQNIIKKDIQNMIVEECGCS T

Now the molecule ACTN30: activin A variant peptide, SEQ ID 31 (protein) GLECDGKVNYCCKKQNFVSFKDIGWNDWIIAPSGYHANKCSGLCPSHIAGTSGSSLSFHSTVINHYRMRGHSPFSKMGACCVPTKLRPMSMLYYDDGQNIIKKDIQNMIVEECGCS T

Now the molecule ACTN70: activin A variant peptide, SEQ ID 71 (protein) GLECDGKVNICCKKQLFGQAKDIGWNDWIIAPSGYHGGGCSGECPSHIAGTSGSSLSFHSTVINHYRMRGHSPVANLKSCCSPTKLRPMSMLYYDDGQNIIKKDIQGMVVEECGCT T

Now the molecule ACTN86: activin A variant peptide, SEQ ID 87 (protein) GLECDGKVNICCKKQSFGKTKDIGWNDWIIAPSGYHGGGCSGECPSHIAGTSGSSLSFHSTVINHYRMRGHSPWANLKSCCSPTKLRPMSMLYYDDGQNIIKKDIQNMVVEECGCT T

Value source: patent US20110091971A1
